System: B6C3F1 mice, B16 melanoma ip, median survival T/C
Protocol text: NCI In Vivo Anticancer Drug Screen. Data for tumor model B16 Melanoma (intraperitoneal) in B6C3F1 mice
Run conditions: endpoint: median survival time; dose: 5.0 mg/kg/injection; schedule: Q01DX009 (ip); vehicle: saline with Tween-80; higher = longer survival
Inconclusive results and toxic doses are left out.
# maps each entry to its T/C

Q) Respond only with T/C recorded for O=C/C(Cl)=C(/Cl)C(=O)O
A) 89 % of control

Q) State its T/C: CN1CCN(c2ccc([N+](=O)[O-])c3no[n+]([O-])c23)CC1
A) 111 % of control

Q) Specify measured T/C for O=C(Nc1ccc(C2=NCCCN2)cc1)c1ccc(C(=O)Nc2ccc(C3=NCCCN3)cc2)nc1 .
A) 100 % of control

Q) Could you please provide reported T/C for COC1=CC(=O)c2c(O)cc(OC)c(O)c2C1=O ? Thanks!
A) 121 % of control
